target_system: α5T210Cβ1γ2 GABAA receptor (Rattus norvegicus, UniProt P18508+P19969, T241C)
Sequence (P19969 26-464 T241C, one chain of several): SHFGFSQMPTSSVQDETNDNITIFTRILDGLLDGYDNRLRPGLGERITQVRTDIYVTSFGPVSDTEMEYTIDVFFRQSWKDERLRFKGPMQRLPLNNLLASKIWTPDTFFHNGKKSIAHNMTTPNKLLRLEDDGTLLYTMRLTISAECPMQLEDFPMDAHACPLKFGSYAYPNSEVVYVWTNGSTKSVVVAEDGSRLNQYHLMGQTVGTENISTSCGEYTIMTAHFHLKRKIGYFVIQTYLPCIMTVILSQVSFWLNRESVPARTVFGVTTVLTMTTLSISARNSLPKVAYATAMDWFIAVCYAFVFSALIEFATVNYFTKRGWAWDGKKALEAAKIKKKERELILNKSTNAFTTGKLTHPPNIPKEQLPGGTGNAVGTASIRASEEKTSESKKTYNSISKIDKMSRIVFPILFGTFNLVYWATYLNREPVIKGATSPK
assay_procedure: Covalent reaction of 3-NCS at the binding level (residual radioligand binding, HEK293 membranes)
condition_description: 3-NCS 30 min on ice, washed; residual [^3H]Ro15–1788 binding
measured_metric: pEC50
For clarity, pEC50 is expressed as the negative log10 of concentration in mol/L.

Bench note: what pEC50 did CN1C(=O)C(N=C=S)N=C(c2ccccc2)c2cc([N+](=O)[O-])ccc21 (stereo not shown) [3-NCS] show?
6.35

---

target_system: α2S204Cβ2γ2 GABAA receptor (Rattus norvegicus, UniProt P18508+P23576, S232C)
Sequence (P23576 29-451 S232C, one chain of several): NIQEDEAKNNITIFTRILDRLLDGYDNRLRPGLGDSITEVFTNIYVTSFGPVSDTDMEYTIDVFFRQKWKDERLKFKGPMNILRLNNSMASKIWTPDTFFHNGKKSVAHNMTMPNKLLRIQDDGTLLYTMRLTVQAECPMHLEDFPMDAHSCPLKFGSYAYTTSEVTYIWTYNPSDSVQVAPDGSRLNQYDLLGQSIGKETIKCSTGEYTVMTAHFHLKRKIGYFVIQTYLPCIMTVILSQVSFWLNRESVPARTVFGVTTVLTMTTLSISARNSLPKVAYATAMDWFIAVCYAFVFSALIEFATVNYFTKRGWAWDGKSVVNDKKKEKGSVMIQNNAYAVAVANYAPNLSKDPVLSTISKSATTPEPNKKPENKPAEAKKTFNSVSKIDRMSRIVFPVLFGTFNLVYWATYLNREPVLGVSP
Sequence (P63138 26-474 partner, one chain of several): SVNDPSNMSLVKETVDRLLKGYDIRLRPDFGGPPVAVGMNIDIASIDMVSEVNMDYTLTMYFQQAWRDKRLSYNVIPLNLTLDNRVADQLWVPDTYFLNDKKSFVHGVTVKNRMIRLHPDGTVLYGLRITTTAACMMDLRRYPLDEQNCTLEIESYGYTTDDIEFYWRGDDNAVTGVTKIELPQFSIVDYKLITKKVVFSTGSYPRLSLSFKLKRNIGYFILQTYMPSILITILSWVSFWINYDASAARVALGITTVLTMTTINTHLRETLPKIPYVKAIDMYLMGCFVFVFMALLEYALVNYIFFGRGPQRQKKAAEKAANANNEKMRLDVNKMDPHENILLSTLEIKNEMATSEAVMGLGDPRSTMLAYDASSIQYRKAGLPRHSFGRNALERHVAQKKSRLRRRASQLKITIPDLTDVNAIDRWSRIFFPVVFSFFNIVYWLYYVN
assay_procedure: Covalent reaction of 3-NCS at the binding level (residual radioligand binding, HEK293 membranes)
condition_description: 3-NCS 30 min on ice, washed; residual [^3H]Ro15–1788 binding
measured_metric: EC50 (µM)
Respond with the bare value in µM.

Record request: EC50 value, item CN1C(=O)C(N=C=S)N=C(c2ccccc2)c2cc([N+](=O)[O-])ccc21 (stereo not shown)
3.2

---

target_system: α2β2γ2 receptors (Rattus norvegicus, UniProt P18508+P23576)
Sequence (P23576 29-451, one chain of several): as the sequence (P23576 29-451 S232C, one chain of several) above, with C204S counted along it
Sequence (P63138 25-474 partner limits assumed, one chain of several): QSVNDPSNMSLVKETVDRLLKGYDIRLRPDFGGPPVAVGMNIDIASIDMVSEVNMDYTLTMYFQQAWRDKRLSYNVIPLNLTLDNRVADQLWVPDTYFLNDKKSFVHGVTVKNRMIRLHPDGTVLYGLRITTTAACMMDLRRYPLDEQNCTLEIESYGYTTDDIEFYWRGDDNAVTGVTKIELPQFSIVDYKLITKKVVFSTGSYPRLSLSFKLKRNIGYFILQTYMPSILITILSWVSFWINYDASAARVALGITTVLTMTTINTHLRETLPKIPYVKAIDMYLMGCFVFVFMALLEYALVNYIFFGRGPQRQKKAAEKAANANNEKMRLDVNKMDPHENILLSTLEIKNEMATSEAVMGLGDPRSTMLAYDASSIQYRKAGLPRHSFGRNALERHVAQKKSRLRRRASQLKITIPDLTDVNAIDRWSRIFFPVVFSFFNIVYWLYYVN
assay_procedure: Radioactive ligand binding / displacement of [^3H]Ro 15–1788
measured_metric: Ki (nM)
Respond numerically; units are nM and should not be typed.

Record CN1C(=O)C(N=C=S)N=C(c2ccccc2)c2cc([N+](=O)[O-])ccc21 (stereo not shown) [3-NCS] : what is its Ki with α2β2γ2 receptors (Rattus norvegicus, UniProt P18508+P23576)?
1550

---

target_system: α2T206Cβ2γ2 GABAA receptor (Rattus norvegicus, UniProt P18508+P23576, T234C)
Sequence (P23576 29-451 T234C, one chain of several): as the sequence (P23576 29-451 S232C, one chain of several) above, with C204S, T206C counted along it
Sequence (P63138 26-474 partner, one chain of several): as the sequence (P63138 26-474 partner, one chain of several) above
assay_procedure: Covalent reaction of 3-NCS at the binding level (residual radioligand binding, HEK293 membranes)
condition_description: 3-NCS 30 min on ice, washed; residual [^3H]Ro15–1788 binding
measured_metric: pEC50
Please express pEC50 as -log10 of the molar concentration.

Identify the measured pEC50 of CN1C(=O)C(N=C=S)N=C(c2ccccc2)c2cc([N+](=O)[O-])ccc21 (stereo not shown) [3-NCS] for α2T206Cβ2γ2 GABAA receptor (Rattus norvegicus, UniProt P18508+P23576, T234C).
6.72

---

target_system: α5β1γ2 receptors (Rattus norvegicus, UniProt P18508+P19969)
Sequence (P19969 32-464 limits assumed, one chain of several): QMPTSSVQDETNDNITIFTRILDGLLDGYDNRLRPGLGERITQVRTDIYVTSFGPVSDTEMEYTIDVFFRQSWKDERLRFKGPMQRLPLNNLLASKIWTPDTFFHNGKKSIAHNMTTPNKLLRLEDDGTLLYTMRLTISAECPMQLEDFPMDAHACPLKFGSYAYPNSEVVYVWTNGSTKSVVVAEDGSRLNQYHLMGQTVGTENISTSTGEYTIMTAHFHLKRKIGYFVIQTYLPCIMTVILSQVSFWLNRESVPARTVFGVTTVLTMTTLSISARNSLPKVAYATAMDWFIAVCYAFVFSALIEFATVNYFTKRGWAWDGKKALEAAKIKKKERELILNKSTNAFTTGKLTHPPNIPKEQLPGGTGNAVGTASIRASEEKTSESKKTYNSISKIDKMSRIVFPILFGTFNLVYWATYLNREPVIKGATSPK
assay_procedure: biochemical
measured_metric: Ki (µM)
Form entry: value (µM) — number only.

Given the entry CN1C(=O)C(N=C=S)N=C(c2ccccc2)c2cc([N+](=O)[O-])ccc21 (stereo not shown) [3-NCS] , what Ki was observed with α5β1γ2 receptors (Rattus norvegicus, UniProt P18508+P19969)?
9.84

---

target_system: α6T205Cβ2γ2 receptor (Rattus norvegicus, UniProt P18508+P30191, T224C)
Sequence (P30191 20-453 T224C, one chain of several): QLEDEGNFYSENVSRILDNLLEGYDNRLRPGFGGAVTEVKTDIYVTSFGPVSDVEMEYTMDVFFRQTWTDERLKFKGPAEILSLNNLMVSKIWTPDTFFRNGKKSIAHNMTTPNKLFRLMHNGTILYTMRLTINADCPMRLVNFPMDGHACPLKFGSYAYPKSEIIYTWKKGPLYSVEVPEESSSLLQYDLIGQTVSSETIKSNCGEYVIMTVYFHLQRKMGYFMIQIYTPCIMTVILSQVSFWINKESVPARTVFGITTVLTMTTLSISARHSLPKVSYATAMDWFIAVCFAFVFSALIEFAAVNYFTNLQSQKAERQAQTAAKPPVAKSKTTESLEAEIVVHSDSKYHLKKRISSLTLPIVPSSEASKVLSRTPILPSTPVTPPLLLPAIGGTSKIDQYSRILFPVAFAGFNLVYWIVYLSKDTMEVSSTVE
Sequence (P63138 25-474 partner limits assumed, one chain of several): as the sequence (P63138 25-474 partner limits assumed, one chain of several) above
assay_procedure: Affinity estimate with [^3H]Ro15–4513
condition_description: read-out: Estimated affinity
measured_metric: Kd (nM)
Answer in nM, number only, no unit symbol.

Test system α6T205Cβ2γ2 receptor (Rattus norvegicus, UniProt P18508+P30191, T224C); read-out Kd; what value for CCOC(=O)c1ncn2c1CN(C)C(=O)c1cc(N=[N+]=[N-])ccc1-2 [[^3H]Ro15–4513] ?
4

---

target_system: α5S209Cβ1γ2 GABAA receptor (Rattus norvegicus, UniProt P18508+P19969, S240C)
Sequence (P19969 26-464 S240C): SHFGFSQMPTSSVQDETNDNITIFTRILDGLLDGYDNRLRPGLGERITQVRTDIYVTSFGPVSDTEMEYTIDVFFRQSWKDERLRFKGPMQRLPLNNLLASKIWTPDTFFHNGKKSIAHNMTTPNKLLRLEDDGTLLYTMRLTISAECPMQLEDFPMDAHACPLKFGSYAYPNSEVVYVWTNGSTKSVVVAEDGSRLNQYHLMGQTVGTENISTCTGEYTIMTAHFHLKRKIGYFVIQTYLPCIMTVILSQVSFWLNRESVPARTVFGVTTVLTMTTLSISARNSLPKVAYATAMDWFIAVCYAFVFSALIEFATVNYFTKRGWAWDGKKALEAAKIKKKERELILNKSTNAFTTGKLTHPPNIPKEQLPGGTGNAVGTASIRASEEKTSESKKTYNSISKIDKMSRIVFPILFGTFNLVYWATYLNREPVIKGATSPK
Sequence (P18508 39-466, stated change not applied): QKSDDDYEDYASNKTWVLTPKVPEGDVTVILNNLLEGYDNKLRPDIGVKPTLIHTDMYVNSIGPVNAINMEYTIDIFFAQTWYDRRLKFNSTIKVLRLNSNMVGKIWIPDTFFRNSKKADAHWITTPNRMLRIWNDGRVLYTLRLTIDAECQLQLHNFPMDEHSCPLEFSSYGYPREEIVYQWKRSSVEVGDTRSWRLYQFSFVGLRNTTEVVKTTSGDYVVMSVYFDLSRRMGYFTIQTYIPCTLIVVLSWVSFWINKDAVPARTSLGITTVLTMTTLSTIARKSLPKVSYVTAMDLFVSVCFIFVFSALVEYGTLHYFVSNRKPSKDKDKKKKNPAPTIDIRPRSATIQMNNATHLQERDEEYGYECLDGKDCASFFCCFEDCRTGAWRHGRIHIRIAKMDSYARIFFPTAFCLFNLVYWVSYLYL
Sequence (P15431 26-474 partner): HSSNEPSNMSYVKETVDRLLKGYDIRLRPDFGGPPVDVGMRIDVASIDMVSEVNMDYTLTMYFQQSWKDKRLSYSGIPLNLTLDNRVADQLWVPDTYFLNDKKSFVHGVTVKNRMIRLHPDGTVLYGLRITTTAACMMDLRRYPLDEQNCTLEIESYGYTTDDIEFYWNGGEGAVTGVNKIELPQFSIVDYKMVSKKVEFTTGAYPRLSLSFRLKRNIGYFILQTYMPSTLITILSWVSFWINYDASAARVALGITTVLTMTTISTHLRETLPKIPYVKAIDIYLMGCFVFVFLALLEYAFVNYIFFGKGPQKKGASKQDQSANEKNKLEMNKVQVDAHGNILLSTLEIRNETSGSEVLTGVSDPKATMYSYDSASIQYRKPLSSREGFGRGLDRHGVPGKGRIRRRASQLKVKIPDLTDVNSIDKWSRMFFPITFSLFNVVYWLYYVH
assay_procedure: Covalent reaction of 3-NCS at the binding level (residual radioligand binding, HEK293 membranes)
condition_description: 3-NCS 30 min on ice, washed; residual [^3H]Ro15–1788 binding
measured_metric: pEC50
# pEC50 = -log10(concentration in molar units)

Write down the reported pEC50 of CN1C(=O)C(N=C=S)N=C(c2ccccc2)c2cc([N+](=O)[O-])ccc21 (stereo not shown) , test system: α5S209Cβ1γ2 GABAA receptor (Rattus norvegicus, UniProt P18508+P19969, S240C).
5.39
